Kindly supply the reported GI50 values for the records listed here.
System: COLO 205 colon
Experiment: NCI tumour cell line growth inhibition, 48 h

Before answering, review these 4 worked examples.
O=C(Nc1cccc(-n2cc(-c3ccncc3)c(-c3ccc(Cl)c(O)c3)n2)c1)Nc1cccc(C(F)(F)F)c1 | 7900 nM
Cc1ccc(NS(=O)(=O)c2ccc(-c3cnc(C4CC4)o3)cc2)cc1C | 464 nM
COC(=O)c1cc2cc(-c3ccc(OC)cc3)cnc2[nH]1 | 774 nM
N#Cc1c(-c2ccccc2)n([O-])c2ccccc2[n+]1=O | 35500 nM

I would be grateful if you could provide GI50 for each of the following entries.
1. CCC(CC)COC(=O)[C@H](C)N[P@](=O)(OC[C@H]1O[C@@](C#N)(c2ccc3c(N)ncnn23)[C@H](O)[C@@H]1O)Oc1ccccc1
2. CC(C)(C)CC(C)(C)c1ccc(OCCSC(=N)N)cc1
3. Nc1nc2cc(-c3ccc4ncc(C(=O)N5CCOCC5)n4c3)ccc2o1

2460 nM
564 nM
3440 nM

---

Tested on: CAKI-1 renal
Test: NCI tumour cell line growth inhibition, 48 h
RECORDED ENDPOINT: TGI (µM)
One number for each entry, in µM.

Before answering, review these 3 worked examples.
CCCCCCCCCCCCCCCCNC(=O)OC(C)C | 4.75
O=[N+]([O-])c1cccc2nc3ccccc3c(NCCO)c12 | 0.00293
CN(N=O)C(=O)N(N)CCCCC(NC(=O)OCc1ccccc1)C(=O)OCc1ccccc1 (centres undefined) | 72.3

Record lookup: for CAKI-1 renal, what TGI belongs to CCCCC/C=C/C(=O)CCc1ccc(O)c(OC)c1 ? 27.5

---

Test system: NCI-H23 lung
Assay: NCI tumour cell line growth inhibition, 48 h
RECORDED ENDPOINT: TGI

I would be grateful if you could provide TGI for each of the following entries.
1. Clc1ccc(C(c2ccc(Cl)cc2)c2cncnc2)cc1
2. COc1ccc(-c2cc3c(OC)c(OC)c(OC)cc3oc2=O)cc1
3. C#CC[N+](CCO)(CCO)CCCCCCCCCCCCCCCCCC
4. COC(=O)C1CCC(=O)C(Sc2ccccc2)C1 (stereo not drawn)
5. Cc1[nH]c2ncn(Nc3ccccc3)c(=N)c2c1Cc1ccccc1
6. CN(N=O)C(=O)N(N)CCCCC(NC(=O)OCc1ccccc1)C(=O)OCc1ccccc1 (stereo not drawn)

1: 36.9 µM; 2: > 100 µM; 3: 30.1 µM; 4: > 100 µM; 5: > 100 µM; 6: 38.8 µM

---

Tested on: HCT-15 colon
Assay: NCI tumour cell line growth inhibition, 48 h; in the data active means GI50 below about 0.43 µM; inactive means the rest
Reply using exactly one outcome from y = active, n = inactive

Answered cases to consult:
O=[N+]([O-])c1cccc2nc3ccccc3c(NCCO)c12 | y
CCCCSSC(=S)N(CC)CC | n
COc1cc(-c2cc(/C=C3\C(=O)Nc4ccc(Cl)cc43)[nH]n2)cc(OC)c1OC | n

Tell me the recorded outcome of this test for CCSc1ccc2c(c1)N(CCCN1CCN(C)CC1)c1ccccc1S2 . n

Tell me the recorded outcome of this test for CCN(CCCNC(=O)Cc1cc(=O)oc2cc(N(C)C)ccc12)CCNc1ccnc2cc(Cl)ccc12 . n

Tell me the recorded outcome of this test for CC[C@@]1(O)C(=O)OCc2c1cc1n(c2=O)Cc2cc3c([N+](=O)[O-])c(OC)ccc3nc2-1 . y

---

Tested on: SK-MEL-28 melanoma
Test: NCI tumour cell line growth inhibition, 48 h
Where a SMILES comes first, the peptide text is derived from it. [ ]: non-standard residue; d: D form. Ac5c = NC1(C(=O)O)CCCC1
Kindly supply the reported TGI values for the records listed here.

COc1cc(-c2cncn2-c2ccc(-c3nc4ccc(F)cc4s3)cc2)ccc1F | > 100 µM
O=C1C=CC(=O)N1n1c(Cc2ccccc2)n[nH]c1=O | > 100 µM
CN(N=O)C(=O)N(N)CCCCC(NC(=O)OCc1ccccc1)C(=O)OCc1ccccc1 (stereo not given) | > 100 µM
COC(=O)C1CCC(=O)C(Sc2ccccc2)C1 (stereo not given) | > 100 µM
CN(C)c1ccc(C=NC23CC4CC(CC(C4)C2)C3)cc1 | > 100 µM
NCC(=O)NC1(C(=O)O)CCCC1 (H-Gly-[Ac5c]-OH) | > 100 µM
O=C1c2[nH]cc(CN3CCN(CCO)CC3)c2C(=O)c2c1c(O)c1ccccc1c2O | 28.7 µM
CCOC(=O)c1c2c(n(Cc3ccc(Cl)cc3Cl)c1C)-c1nc(Cc3ccccc3)[nH]c1C(=O)C2=O | 3.3 µM
Cc1ccc(NC(=S)C#N)cc1Cl | > 100 µM

We next turn to a different compound, shown below.
Need TGI, item COC(=O)C(Cc1c[nH]c2ccccc12)NC(=O)C(Cc1c[nH]c2ccccc12)NC(=O)OCc1ccccc1 (stereo not given) 31.8 µM

---

System: MDA-MB-231 breast
Experiment: NCI tumour cell line growth inhibition, 48 h
RECORDED ENDPOINT: TGI (µM)
Numbers only, in µM.

CSc1nn2c(-c3ccc4ccccc4c3)ccnc2c1C#N | 5.88
COc1ccc(-c2cnoc2-c2ccc(OC)cc2O)cc1 | 27.6
O=c1ccc(N=Nc2ccccc2)ccc1Cl | 21.2

Need TGI, item COc1ccc(/C=N/Nc2nc(N)nc(N3CCCC3)c2C#N)cc1 32.9

---

Test system: OVCAR-3 ovarian
Assay: NCI tumour cell line growth inhibition, 48 h
Kindly supply the reported TGI values for the records listed here.

I would be grateful if you could provide TGI for each of the following entries.
1. CCCCCCCCCCCCC/C=C/[C@H]1[C@@H](C(=O)OC)N1S(=O)c1ccc(C)cc1 (stereo partly specified)
2. O=S(=O)(O)c1ccc2c(N=Nc3cccc4ccccc34)c(O)c(S(=O)(=O)O)cc2c1
3. C=C(C)[C@@H]1C/C=C(\COC(=O)[C@H](OC(C)=O)C(NC(=O)c2ccccc2)c2ccccc2)CC[C@H]2O[C@]2(C)CC/C=C(\C)CC1 (stereo partly specified)
4. O=C(Cc1ccc(OCc2cccc(Cl)c2)cc1)NO
5. O[C@H]1C=C2[C@H](C[C@@H]1O)CN1C[C@H]2c2cc3c(cc21)OCO3
6. Cc1cc(I)cc(CN(C)CCN(C)C)c1O
7. CN=c1oc2ccccc2cc1C(N)=O

["> 100 µM", "> 100 µM", "44.5 µM", "> 100 µM", "84.6 µM", "> 100 µM", "> 100 µM"]

I would be grateful if you could provide TGI for each of the following entries.
1. COC(=O)C12C3C4C1C1C2C3C41C(=O)O (stereo unspecified)
2. O=C(CC1(O)C(=O)Nc2ccc([N+](=O)[O-])cc21)c1ccc2ccccc2c1 (stereo unspecified)
3. COc1ccc(C2CC(c3ccc4ccccc4c3O)=NN2)cc1OC (stereo unspecified)
4. CC1CN=C(N(C)C(=O)Nc2ccc(Cl)cc2)S1 (stereo unspecified)
5. C[C@]12CC[C@@H]3c4ccc(O)cc4CC[C@H]3[C@@H]1CC[C@@H]2OC(=O)CCC1CCCC1
6. COC(=O)c1c2c(c(C)[n+]([O-])c1C)C(=O)C(NCc1cccc(Cl)c1)=CC2=O
7. COc1cc(C(=O)C(CO)Oc2ccccc2OC)ccc1O (stereo unspecified)
8. O=c1[nH]c2cc(Cl)ccc2nc1/C(=N/Nc1ccccc1)C(O)c1ccco1 (stereo unspecified)

> 100 µM
> 100 µM
> 100 µM
> 100 µM
30.1 µM
1.17 µM
> 100 µM
> 100 µM

I would be grateful if you could provide TGI for each of the following entries.
1. COC(=O)c1sc(=O)n(-c2ccccc2)c1SCc1ccccc1
2. COC(=O)[C@](NC(=O)OCc1ccccc1)([C@@H](C)Sc1ccc(C)cc1)C(F)(F)F
3. O=c1cc(NNc2ccc3ccccc3c2)[nH]c(=S)[nH]1
4. CN(C)c1ccc(C=NC23CC4CC(CC(C4)C2)C3)cc1
5. C=C1C[C@]23CC[C@@H]4C(CO)(CO)CC(=O)C[C@]4(C)[C@@H]2CC[C@H]1C3

["> 100 µM", "> 100 µM", "34.1 µM", "> 100 µM", "> 100 µM"]

Need TGI, item CC(C)(C)CC(C)(C)c1ccc(OCCSC(=N)N)cc1 2.89 µM

---

Kindly supply the reported TGI values for the records listed here.
Test system: NCI-H460 lung
Experiment: NCI tumour cell line growth inhibition, 48 h

Before answering, review these 10 worked examples.
O=C(COc1ccc(OCC(=O)N2C(=O)CN(c3ccc(Cl)cc3)C2=S)cc1)N1C(=O)CN(c2ccc(Cl)cc2)C1=S | 66.1 µM
COC(=O)C12C3C4C1C1C2C3C41C(=O)O (configuration not stated) | > 100 µM
Cn1cnc([N+](=O)[O-])c1Sc1nc2ncccc2[nH]1 | > 100 µM
CN(CCN(C)CCN(C)C(=O)Cc1ccc(Cl)c(Cl)c1)CCN1CCCC1 | 82.1 µM
CCSc1ccc2c(c1)N(CCCN1CCN(C)CC1)c1ccccc1S2 | 3.53 µM
Cc1c(C(=O)C(=O)c2ccccc2)c(C)c(C(=O)C(=O)c2ccccc2)c(C)c1C(=O)C(=O)c1ccccc1 | > 100 µM
O=C(Cc1ccc(OCc2cccc(Cl)c2)cc1)NO | > 100 µM
CCOC(=O)c1oc2c(OC)cc(Cl)c3c2c1CCC3 | > 100 µM
CC[C@@]1(O)C(=O)OCc2c1cc1n(c2=O)Cc2cc3c([N+](=O)[O-])c(OC)ccc3nc2-1 | 0.118 µM
O=C1C(c2ccccc2)=C(c2ccccc2)C(c2ccc(-c3ccc(C4=C(c5ccccc5)C(=O)C(c5ccccc5)=C4c4ccccc4)cc3)cc2)=C1c1ccccc1 | > 100 µM

I would be grateful if you could provide TGI for each of the following entries.
1. CN(CCO)C1CCN(c2ccc(Nc3ncc4c5ccnc(F)c5n(C5CCCC5)c4n3)nc2)CC1
2. COc1cc(C(=O)C(CO)Oc2ccccc2OC)ccc1O (configuration not stated)
3. COC(=O)Cc1ccc(Oc2nc3ccccc3nc2-c2cccs2)cc1
4. CCCn1c2c(c3ccccc3c1=O)C(=O)c1cc3c(cc1-2)OCO3
5. Clc1cccc(Cl)c1C(Nc1nncs1)Nc1nncs1
6. COc1cccc(-n2ncc3c(N/N=C/c4ccc(F)cc4)ncnc32)c1

1: 2.44 µM; 2: > 100 µM; 3: > 100 µM; 4: > 100 µM; 5: 68.5 µM; 6: 24.7 µM

I would be grateful if you could provide TGI for each of the following entries.
1. Brc1sc(Br)c2c1[C@H](Br)C[C@@H]2Br
2. NS(=O)(=O)c1ccc(Nc2ncc(-c3ccccc3)o2)cc1
3. CCN(CC)c1ccc2cc(C(=O)Nc3ccccc3OC)c(=N)oc2c1
4. COC(=O)C1CCC(=O)C(Sc2ccccc2)C1 (configuration not stated)
5. Nc1ccc2nc3ccc(=O)cc-3n(-c3ccccc3)c2c1

> 100 µM
> 25 µM
> 100 µM
> 100 µM
> 100 µM

Need TGI, item O=Cc1ccc(-c2nccc3c2[nH]c2ccccc23)o1 > 100 µM
